- target-desc: T1, biotin-PDGF-bb (human, UniProt P01127 82-190, biotin)
- T1 construct: also called human platelet-derived growth factor
- T1 sequence (P01127 82-190): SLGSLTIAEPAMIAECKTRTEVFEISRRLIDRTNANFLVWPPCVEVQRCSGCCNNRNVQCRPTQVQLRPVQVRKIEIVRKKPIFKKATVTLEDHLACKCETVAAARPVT
- experiment: SPR; […]; Biacore S200, […] (PBS with 0.05% Tween 20, pH 7.4); […]
- run-conditions: both partners purified

# binder, Kd
records = [
    ("GCAFEGESCNVQFYPCCVSMKLMCIPGNPDGTCYYL (designed binder) [P-AST-3]", "> 50 µM"),
]
